- System: SK-MEL-5 melanoma
- Method Summary: NCI-60 one-dose screen, 48 h
- Experimental Parameters: 10 µM unless noted
The panel holds about 83,000 compounds, 20% with a hit somewhere; the sample as a whole holds those more often. Active and inactive are the calls of the source. How the source made its calls: active means growth percent below 10; inactive means the rest.
Give one outcome, nothing more. List: true (active), false (inactive)

INSERT INTO results (molecule, group) VALUES
  ('O=C(CCc1nnc(CN(c2ccccc2)c2ccccc2)o1)c1nc2ccccc2[nH]1', 'false');

Prompt: Please let me know the test result on file for CC(CCc1ccc(Cl)c(Cl)c1)NCc1ccc(C(C)(C)C)cc1 (stereo not given) .
Completion: false

Prompt: I'd appreciate the recorded outcome for OC(c1cccc(-n2ccc(C(F)(F)F)n2)c1)c1cnccc1NC1CCCCCC1 (stereo not given) from this test.
Completion: false

Prompt: Status in this test for C=C1C(=O)O[C@H]2[C@H]1CC/C(CNC(=O)/C=C/c1ccc(Cl)cc1Cl)=C\CC[C@@]1(C)O[C@@H]21 ?
Completion: true

Prompt: Query: recorded result category for COc1ccc(N=C(c2ccccc2)C2C(=O)c3ccccc3C2=O)cc1 in this test
Completion: false

====

- Tested on: MCF7 breast
- Method Summary: NCI-60 one-dose screen, 48 h
- Experimental Parameters: 10 µM unless noted
About 83,000 compounds went through this panel and 20% of them were active in at least one assay; those are over-represented in the sample as a whole. Calls of active or inactive are those of the source. Rule for the calls: active = growth percent below 10; inactive = the rest.
Give your call using only these classes: active, inactive

Prompt: Can you look up the reported call for Cc1ccc(C(=O)COc2cccc(/C=C3\Oc4ccccc4C3=O)c2)cc1 for me?
Completion: inactive

Prompt: Hey, what did the test say about O=C(Nc1cccc(Cl)c1)c1cc(N=Nc2ccc([N+](=O)[O-])cc2Cl)ccc1O ?
Completion: inactive

Prompt: Any idea what this test logged for Cc1ccc(S(=O)(=O)n2cc(CNc3ccc(N4CCOCC4=O)cc3)c3ccccc32)cc1 ?
Completion: inactive

Prompt: Could you kindly confirm the outcome this assay logged for O=C(N=c1oc2ccccc2cc1-c1cc2ccccc2[nH]1)c1ccc(Cl)cc1 ?
Completion: inactive

Prompt: Returns: the outcome recorded for COc1cccc(C(=O)NCCCNc2cc(-c3cn(-c4ccccc4)nc3-c3cccc(OC)c3)ccn2)c1 in this assay.
Completion: inactive

Prompt: I would be grateful if you could indicate the recorded call for O=Cc1c[nH]c2ccc(-c3csc4ccccc34)cc12 .
Completion: inactive

Prompt: Which outcome was entered for the molecule N=C(N)c1ccc(-c2ccc(-c3cncc4ccccc34)s2)s1 in this test?
Completion: active

====

Quick reference: growth of the listed items.
- Test system: HS 578T breast
- Method Summary: NCI-60 one-dose screen, 48 h (100 = growth as untreated, 0 = no growth, -100 = all killed)
- Experimental Parameters: 10 µM unless noted
This is part of a sample that, as a whole, favours compounds with a hit. Of some 83,000 tested, about 20% had one in any assay.
Numbers only here, please. The scale is %.

// worked examples, growth included
INSERT INTO measurements (compound, property, measured) VALUES
  ('Cn1c(=O)c2c(nc(Cl)n2CCl)n(C)c1=O', 'growth', 83.8),
  ('COc1ccccc1N1C(=O)/C(=C/C2=Cc3ccccc3OC2)SC1=S', 'growth', 94.6),
  ('COc1ccc2c(c1)CCCN2c1c2ccccc2nc2ccccc12', 'growth', 10.4),
  ('COc1cccc(-c2nn(-c3ccccc3)cc2-c2ccnc(NCCCNC(=O)c3cccc(C(F)(F)F)c3)c2)c1', 'growth', 33.7),
  ('c1cc2ccc3cc2cc1CNCCOCCNCc1ccc2ccc(cc2c1)CNCCOCCNC3', 'growth', -17.6);

Prompt: GET /values?readout=growth&item= CCCCCCN(CCCCCC)c1ccc(/C=C2/SC(=O)N(c3nc(N4CCCC4)nc(N4CCCC4)n3)C2=O)c(C)c1
Completion: 78.4

Prompt: Would you kindly share the measured growth for CC1OC(O[C@H]2/C=C/C=C/C=C/C=C/C=C/C=C/C=C/[C@H](C)[C@@H](O)[C@@H](C)[C@H](C)OC(=O)CC(O)CC(O)CCC(O)C(O)CC(O)C[C@]3(O)C[C@H](O)C(C(=O)O)C(C2)O3)C(O)[C@H](N)C1O (stereo partly drawn) ?
Completion: -18.7

Prompt: // query growth value for entry COc1ccc(NC(=O)CSc2nnc(-c3cc(-c4ccc(S(N)(=O)=O)cc4)nc4ccccc34)n2-c2ccccc2)cc1
Completion: 75.6

Prompt: What does the record list as growth for O=C(c1ccc(Nc2nccc(NCCCCNc3ccnc4cc(Cl)ccc34)n2)cc1)N1CCCCC1 ?
Completion: 65

Prompt: Fill in: growth of NC(=N\N=C/c1ccccc1[N+](=O)[O-])/C(N)=N\N=C/c1ccccc1[N+](=O)[O-] is ___
Completion: 100

Prompt: growth lookup needed for COc1cc(C2CC(=O)Nc3c2c(C)nn3-c2nc3ccccc3[nH]2)c(OC)c2c1OCO2 (stereo not drawn) , thanks.
Completion: 53.1

Prompt: Sample Cc1ccc(-c2c(-c3ccccc3)c(=O)oc3ccc(C)cc23)cc1 — what was its growth?
Completion: 99.6

Prompt: Fill in the blank: the reported growth of NC(=O)c1ccc[n+](Cc2ccc(Cl)cc2Cl)c1 is ____.
Completion: 99.4
